- EXPERIMENT DESCRIPTION: inhibitors of the yeast RAM network, pilot screen, dse1pr::URA3 reporter, 5-FOA selection (AID 869);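 further: 0% = DMSO wells with no growth and 100% = 10 µM 1-NA-PP1 with full growth; RAM network block rescues cells from 5-FOA so hits raise OD615 growth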
- TEST CONDITIONS: S. cerevisiae dse1pr::URA3 5-FOA growth, OD615, 2 d; at 10 µM; stronger effect = higher value; strain carries analog-sensitive mutant Cbk1 kinase
MEASURED ENDPOINT: inhibition (%)
Write the value in % as a bare number.

1) COc1ccc(N(CC(=O)N2CCN(C)CC2)S(=O)(=O)c2ccccc2)cc1OC	0.195
2) CCOC(=O)N1CCN(c2c(NCc3ccccn3)c(=O)c2=O)CC1	1.28
3) CCOCCCNC(=O)c1cn(CC(C)C)c(=O)c2cc(OC)c(OC)cc12	0.375
4) O=C(Nn1nnnc1Nc1ccccc1)C12CC3CC(CC(C3)C1)C2	2.17
5) CC(C)Sc1nc2c(cnn2-c2ccc(F)cc2)c(=O)[nH]1	0.795
6) CC(=O)c1cccc(NC2c3ccccc3C(=O)N2Cc2ccc3c(c2)OCO3)c1 (stereo not given)	2.9
7) COCCN1C(=O)c2oc3ccccc3c(=O)c2C1c1cccc(O)c1 (stereo not given)	1.1
8) CN(C)S(=O)(=O)c1ccc(C(=O)Nc2ccc(Cl)cc2)cc1	2.33
9) COC(=O)C(CCSC)NC(=O)Cn1ncc2c(=O)oc3ccc(C)cc3c21 (stereo not given)	0.875

// below: inhibition requested for another compound
Quick check: inhibition of O=C(C1CC1)N1CCc2cc(Br)cc(S(=O)(=O)NCc3ccc4c(c3)OCO4)c21 ?
1.23

====

- EXPERIMENT DESCRIPTION: RAM signaling pathway blockade in yeast – S. cerevisiae, Pdr1DBD-CYC8 efflux-inhibited sensitized strain, primary screen (AID 1298);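 further: 0% = DMSO untreated cells without growth and 100% = 10 µM 1-NA-PP1 full growth; higher means more yeast growth rescued from 5-FOA killing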
- TEST CONDITIONS: S. cerevisiae cbk1-as DSE1-URA3 strain, 5-FOA growth OD615, 2 d; at 50 µM; stronger effect = higher value
MEASURED ENDPOINT: RAM network inhibition (%)
Write the value in % as a bare number.

1. O=C(Nc1nnc(-c2ccc3c(c2)CCCC3)o1)C1COc2ccccc2O1 (stereo not drawn)	-1.78
2. CS(=O)(=O)N(CC(=O)NCc1ccco1)c1ccc(Cl)c(C(F)(F)F)c1	7.07
3. Cn1c(CNC(=O)c2ccc(F)cc2)nc2ccccc21	3.67

Quick check: RAM network inhibition of CN1CCN(C(=O)c2cc3c(s2)-c2ccccc2S(=O)(=O)C3)CC1 ?
0.72

Quick check: RAM network inhibition of COc1ccc(N2CCN(CCCNS(=O)(=O)c3ccc4c(c3)oc(=O)n4C)CC2)cc1 ?
6.05

Quick check: RAM network inhibition of CC1=CS/C(=C(/C#N)C(=O)NCc2ccco2)N1c1ccccc1 ?
1.49

Quick check: RAM network inhibition of COc1cccc(C2N(c3ccc(Cl)cc3)C(=O)C3CCCN32)c1 (stereo not drawn) ?
0

Quick check: RAM network inhibition of O=C(Nc1nc(-c2cccs2)cs1)c1ccc(S(=O)(=O)N2CCCCC2)cc1 ?
4.06

====

- EXPERIMENT DESCRIPTION: growth suppression of beta-catenin knockout HCT116, pilot screen, human colon tumor cells (AID 823);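 further: 0% = wells killed by 20 µM Hyamine and 100% = untreated DMSO cell wells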
- TEST CONDITIONS: CellTiter-Glo, 60 h, at 10 µM, stronger effect = lower value
Records with an inconclusive call do not appear.
Property: viability; scope: individual molecules
Write the value in % as a bare number.

Sample answers from the record:
1. CCc1ccccc1N1CSC2=C(C#N)C(c3ccccc3F)CC(=O)N2C1 (stereo not given)	78.8
2. CC1CCN(c2nc3c(c(=O)n(C)c(=O)n3C)n2CCSc2ncccn2)CC1	99.1
3. CCC(C)NS(=O)(=O)c1ccc(NC(=O)c2c(-c3ccccc3)noc2C)cc1 (stereo not given)	86.3
4. O=c1c2ccccc2ncn1-c1ccc2c(c1)OCCO2	101
5. COc1ccc(OC)c(N(CC(=O)NC2CC2)S(=O)(=O)c2ccc(C)cc2)c1	96.1

Quick check: viability of COc1ccc(C2CC(=O)C3=C(C2)NC(C)=C(C#N)C3c2ccc(N(C)C)cc2)cc1 (stereo not given) ?
78.5

Quick check: viability of CC(=O)OC(/C(O)=C(\C#N)c1nc2ccccc2[nH]1)c1ccccc1 (stereo not given) ?
59.6

====

Property: growth inhibition; scope: individual compounds
- EXPERIMENT DESCRIPTION: Restrictive medium S. cerevisiae growth inhibition, OD615, pilot screen of yeast lifespan reduction project, restrictive growth control (AID 706);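 further: modified DeaD lifespan yeast strain shifted to restrictive glucose medium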
- TEST CONDITIONS: OD615, 48 h, at 10 µM, stronger effect = higher value
Write the value in % as a bare number.

Sample answers from the record:
1. COc1ccc(-c2nnc(SCC(=O)N3CCN(c4ccccc4)CC3)o2)cc1OC	7.65
2. CCc1nc(C)cn1S(=O)(=O)c1ccc(Cl)c(Cl)c1Cl	-13.9
3. Nc1nonc1-n1nncc1-c1ccccc1	-13.6
4. CCOC(=O)c1csc(NC(=O)C(C)(C)C)n1	-0.045
5. CCOC(=O)CNc1c(N2CCN(c3ccccn3)CC2)c(=O)c1=O	13.8
6. Cc1cccc(CSc2nnc(Cn3c(=O)sc4ccccc43)n2C)c1	1.82

Quick check: growth inhibition of CSC1=NCCN1C(=O)COc1ccc2ccccc2c1 ?
-6.38

Quick check: growth inhibition of Cc1ccc(O)c(C2=NOC(O)(C(F)(F)C(F)F)C2)c1 (configuration not stated) ?
9.35

Quick check: growth inhibition of O=C(Cc1cccs1)Nc1nnc(-c2ccncc2)s1 ?
3.21

Quick check: growth inhibition of CCOc1cc(C(=O)NCCN2CCOCC2)cc(OCC)c1OCC ?
-3.11

Quick check: growth inhibition of NC(=O)CC1NC(=O)c2ccccc21 (configuration not stated) ?
-6.05

Quick check: growth inhibition of C=C(C)CSc1nc2c(cc1C#N)CCC2 ?
21.6

====

- EXPERIMENT DESCRIPTION: OD615 S. cerevisiae growth inhibition, permissive medium, pilot counter-assay, permissive growth control for S. cerevisiae lifespan shortening project (AID 705)
- TEST CONDITIONS: OD615, 24 h, at 10 µM, stronger effect = higher value
MEASURED ENDPOINT: growth inhibition (%)
Write the value in % as a bare number.

1. COc1cccc(-n2c(Cc3cc(=O)[nH]c(=O)[nH]3)nnc2SCC(=O)Nc2ccccc2)c1	-5.92
2. Nc1c(C(=O)CCC(=O)O)oc2ccc(Cl)cc12	5.78
3. O=C(NC(=O)c1ccccc1)OCC(F)(F)F	-6.06
4. COc1cccc(C(c2sc3ncnn3c2O)N2CCc3ccccc3C2)c1 (stereo unspecified)	-0.12
5. CC(Oc1ccc(Cl)cc1Cl)C(=O)Nc1ccncc1 (stereo unspecified)	-13.3
6. c1ccc(Nc2nc3ccccc3n3cnnc23)cc1	-1.27
7. CCCCC(CC)C(=O)NCCCN1CCN(CCCNC(=O)C(CC)CCCC)CC1 (stereo unspecified)	-6.17
8. Cc1c(NC(=O)CCCCCN2C(=O)C3C4C=CC(C4)C3C2=O)c(=O)n(-c2ccccc2)n1C (stereo unspecified)	5.03
9. CCC(=O)Nc1ccc(C(=O)c2ccccc2)cc1	-6.81
10. O=c1[nH]c(NCCCO)nc2c1C1(CCCC1)Cc1ccccc1-2	-1.02

// below: growth inhibition requested for another molecule
Quick check: growth inhibition of COc1cc(NC(=O)c2cc3c(=O)n(C)c4ccccc4c3n2C)cc(OC)c1OC ?
1.8

====

- EXPERIMENT DESCRIPTION: inhibitors of the yeast RAM network, pilot screen, dse1pr::URA3 reporter, 5-FOA selection (AID 869);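 further: 0% = DMSO wells with no growth and 100% = 10 µM 1-NA-PP1 with full growth; RAM network block rescues cells from 5-FOA so hits raise OD615 growth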
- TEST CONDITIONS: S. cerevisiae dse1pr::URA3 5-FOA growth, OD615, 2 d; at 10 µM; stronger effect = higher value; strain carries analog-sensitive mutant Cbk1 kinase
Property: inhibition; scope: individual compounds
Write the value in % as a bare number.

1) Nc1ccc(SC(F)(F)F)cc1C(=O)c1ccccc1	-2.23
2) CCOC(=O)CC(=O)Nc1ccc(C(=O)OCC)cc1	1.54
3) CCN1CCN(c2ncnc3c2sc2nc(N4CCOCC4)c4c(c23)CCC4)CC1	0.195

Quick check: inhibition of Cc1ccc(S(=O)(=O)N2CCCC(C(=O)N(Cc3cccs3)C3CC3)C2)cc1 (stereo unspecified) ?
0.39

Quick check: inhibition of CCOC(=O)C1CCCN(C(=O)c2ccc(CS(=O)(=O)c3ccc(C)cc3)o2)C1 (stereo unspecified) ?
1.16

Quick check: inhibition of COCCN1C(=O)c2ccccc2C(C(=O)N2CCN(c3ccccn3)CC2)C1c1ccc(F)cc1 (stereo unspecified) ?
0.335

====

- EXPERIMENT DESCRIPTION: Restrictive medium S. cerevisiae growth inhibition, OD615, pilot screen of yeast lifespan reduction project, restrictive growth control (AID 706);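 further: modified DeaD lifespan yeast strain shifted to restrictive glucose medium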
- TEST CONDITIONS: OD615, 48 h, at 10 µM, stronger effect = higher value
MEASURED ENDPOINT: growth inhibition (%)
Write the value in % as a bare number.

1) O=C(O)C1C2C=CC(C2)C1C(=O)NCc1ccc2c(c1)OCO2 (stereo not drawn)	-1.14
2) O=C(Nc1ccccc1)c1ccccc1O	13.7
3) Cc1cccn2c(=O)c3cc(C#N)c(=NC(=O)c4ccccc4)n(Cc4ccco4)c3nc12	-12.7
4) CC12CCC(C(=O)N3CCCc4ccccc43)(CC1=O)C2(C)C (stereo not drawn)	-2.7
5) COc1ccc(C(=O)C(OC(=O)CNC(=O)c2ccco2)c2ccccc2)cc1 (stereo not drawn)	3.51
6) O=C(O)c1ccc(NC(=O)C2C3CCC(C3)C2C(=O)O)cc1 (stereo not drawn)	-0.915
7) COc1ccccc1N1CCN(C(=O)C2CCN(S(=O)(=O)c3ccccc3)CC2)CC1	2.96
8) O=C(CSc1n[nH]c(-c2ccccc2)n1)c1ccccc1	16.9

Quick check: growth inhibition of Cc1ccc(-c2ccc(CCC(=O)O)n2C(C)C)cc1 ?
-1.55

Quick check: growth inhibition of CCN1CCN(CCNC(=O)CS(=O)(=O)Cc2nc(-c3ccc(C)cc3)oc2C)CC1 ?
-28.7

Quick check: growth inhibition of COc1cccc(C2CC(c3ccc(Cl)cc3)Nc3nc(N)nn32)c1 (stereo not drawn) ?
11.4

Quick check: growth inhibition of O=C(O)CC1(Cc2nc(-c3cccs3)no2)CCCC1 ?
0.06

Quick check: growth inhibition of Cc1cc(C)c(S(=O)(=O)N2CCN(CCO)CC2)c(C)c1 ?
10.5

Quick check: growth inhibition of CCOC(=O)c1sc(NC(=O)C2CC2)cc1C ?
-0.985

Quick check: growth inhibition of Cc1c(C(=O)NCc2ccc3c(c2)OCO3)oc2ccc(S(=O)(=O)N3CCC(C)CC3)cc12 ?
-16.7

Quick check: growth inhibition of O=C(NCCN1C(=O)C2C3C=CC(C3)C2C1=O)Nc1ccc(Br)cc1 (stereo not drawn) ?
9.2
